# studySystem: Abl kinase (h) (Homo sapiens (Human))
# Sequence (P00519 whole entry): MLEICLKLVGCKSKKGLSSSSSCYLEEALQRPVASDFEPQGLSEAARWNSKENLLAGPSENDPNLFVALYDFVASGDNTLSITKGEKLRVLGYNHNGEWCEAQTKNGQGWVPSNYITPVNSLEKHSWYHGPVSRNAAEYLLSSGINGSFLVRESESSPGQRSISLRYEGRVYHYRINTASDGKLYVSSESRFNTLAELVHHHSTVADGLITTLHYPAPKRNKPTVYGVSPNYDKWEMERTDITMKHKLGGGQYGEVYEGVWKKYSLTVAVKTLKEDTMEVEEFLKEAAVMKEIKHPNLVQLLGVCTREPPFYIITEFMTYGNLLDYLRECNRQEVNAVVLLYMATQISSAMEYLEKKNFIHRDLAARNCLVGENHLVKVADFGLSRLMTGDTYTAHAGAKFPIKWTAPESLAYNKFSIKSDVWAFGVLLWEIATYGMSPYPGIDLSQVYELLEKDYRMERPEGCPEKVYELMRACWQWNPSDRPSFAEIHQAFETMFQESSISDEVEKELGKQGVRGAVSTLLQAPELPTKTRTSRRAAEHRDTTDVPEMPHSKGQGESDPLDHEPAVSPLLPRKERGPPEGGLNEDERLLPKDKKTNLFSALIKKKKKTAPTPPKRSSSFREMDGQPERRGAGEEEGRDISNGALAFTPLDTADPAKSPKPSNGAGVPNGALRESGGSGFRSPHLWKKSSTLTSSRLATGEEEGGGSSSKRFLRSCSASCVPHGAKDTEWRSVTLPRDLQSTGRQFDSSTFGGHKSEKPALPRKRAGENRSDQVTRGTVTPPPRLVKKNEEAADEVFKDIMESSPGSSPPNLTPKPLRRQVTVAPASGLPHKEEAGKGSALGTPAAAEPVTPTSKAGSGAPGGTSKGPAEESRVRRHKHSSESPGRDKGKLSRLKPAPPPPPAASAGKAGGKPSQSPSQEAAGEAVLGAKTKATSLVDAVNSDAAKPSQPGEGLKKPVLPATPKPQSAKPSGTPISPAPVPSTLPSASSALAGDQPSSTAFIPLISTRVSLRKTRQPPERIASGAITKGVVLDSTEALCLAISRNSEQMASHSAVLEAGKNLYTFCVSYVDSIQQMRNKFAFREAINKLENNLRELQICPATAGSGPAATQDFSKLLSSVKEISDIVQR
# experimentDescription: Cerep kinase profiling, HTRF assay, Abl kinase
# Format: biochemical
# studyConditions: 10 μM; compounds tested by Cerep; read-out: % inhibition of kinase activity, Abl WT (category)
Below, each entry is listed with its recorded inhibition at 10 µM.
attributeMeasured: inhibition at 10 µM

molecule: COC(=O)c1cc2cc(NC(=O)c3cccc(C#N)c3)cnc2[nH]1
attributeMeasured: inhibition at 10 µM
result: 10 to 50%
//
molecule: O=C(Nc1cnc2[nH]c(Cn3ccnc3)cc2c1)c1ccccc1Br
attributeMeasured: inhibition at 10 µM
result: > 50%
//
molecule: CCCSc1ncccc1C(=O)Nc1cnc2[nH]c(C(=O)OC)cc2c1
attributeMeasured: inhibition at 10 µM
result: 10 to 50%
//
molecule: O=C(Nc1cnc2[nH]c(CNc3cccc(Br)c3)cc2c1)c1ccccc1Br
attributeMeasured: inhibition at 10 µM
result: 10 to 50%
//
molecule: CN(C)CCCNC(=O)c1cc2cc(NC(=O)c3ccc4nccnc4c3)cnc2[nH]1
attributeMeasured: inhibition at 10 µM
result: < 10%
//
molecule: COCc1cc2cc(NC(=O)c3ccccc3Br)cnc2[nH]1
attributeMeasured: inhibition at 10 µM
result: > 50%
//
molecule: COC(=O)c1cc2cc(NC(=O)c3cccc4c3OCC4)cnc2[nH]1
attributeMeasured: inhibition at 10 µM
result: < 10%
//
molecule: CC1CCCCC1NCc1cc2cc(NC(=O)c3ccccc3Br)cnc2[nH]1 (stereo not shown)
attributeMeasured: inhibition at 10 µM
result: < 10%
//
molecule: O=C(Nc1cnc2[nH]c(C(=O)N3CCOCC3)cc2c1)c1cc([N+](=O)[O-])ccc1F
attributeMeasured: inhibition at 10 µM
result: < 10%
//
molecule: COC(=O)c1cc2cc(NC(=O)c3cccnc3)cnc2[nH]1
attributeMeasured: inhibition at 10 µM
result: 10 to 50%
